# Tested on: K562
# protocol_description: NCI tumour cell line growth inhibition, 48 h
Active and inactive are the calls of the source. Rule as the data show it: active = GI50 up to about 1.1 µM and inactive = higher.
Pick one and only one: active, inactive

Field: example entries. Status: answers known.
> print(dat)
                                   compound     class
1  COc1cc(/C=C/C(=O)c2sc(Nc3ccccc3)nc2C)ccc1O  inactive
2     Nc1ccc(Cc2ccc(N)c(C(=O)O)c2)cc1C(=O)O  inactive
3  O=S(=O)(N/N=C/c1cccc(/C=N/NS(=O)(=O)c2ccccc2)c1)c1ccccc1  inactive

For this compound, state the assay outcome: CC(=O)NNc1nc(C)c(C(=O)NNC(=O)C(=O)Nc2ccc(Cl)c([N+](=O)[O-])c2)s1
inactive
